Test system: HOP-62 NSCLC
Experiment: NCI tumour cell line growth inhibition, 48 h
Listed next: entries and their corresponding TGI.

query: Look up TGI for this compound: C=C1CC(c2ccc(O)c(OC)c2)Oc2c(OC)cccc21 (centres undefined)
result: > 100 µM

query: May I ask what TGI has been recorded for Cc1cc2c(C(C)C)c(O)c(O)c(C=NCC3CCCN4CCCCC34)c2cc1-c1cc2c(C=NCC3CCCN4CCCCC34)c(O)c(O)c(C(C)C)c2cc1C (centres undefined) ?
result: > 38.7 µM

query: Quick one: TGI of O=c1cc(N2CCOCC2)oc2c(-c3ccc4c(c3)OCCO4)csc12 ?
result: 5.33 µM

query: Report TGI for CO/C=C(/C(=O)OC)c1ccccc1Oc1c(F)c(F)c(F)c(F)c1F please.
result: > 100 µM

query: What value of TGI has been recorded for this entry: COc1cccc(-c2cc(=O)c3cc(NC(C)=O)ccc3[nH]2)c1
result: > 100 µM
